Molecular target: T1, recombinant human Trop-2-his protein (ACCESSION NO.: NP_002344.2, AA 1-274) (human, UniProt P09758 27-274)
T1 construct: range 27-274; also called recombinant human Trop-2 protein; recombinant human Trop-2 extracellular domain; not shown: his tag
T1 sequence (looked up): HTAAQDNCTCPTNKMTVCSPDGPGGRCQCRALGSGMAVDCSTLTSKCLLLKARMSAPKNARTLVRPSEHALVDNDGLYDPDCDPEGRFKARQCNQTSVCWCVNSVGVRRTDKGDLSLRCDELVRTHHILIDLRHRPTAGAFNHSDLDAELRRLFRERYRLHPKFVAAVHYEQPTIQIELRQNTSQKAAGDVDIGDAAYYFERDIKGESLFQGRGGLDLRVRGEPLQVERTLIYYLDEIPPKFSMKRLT
Experiment: BLI, antibody on AHC sensor, Trop-2-his 60 nM
pKd: −log10 of the molar value.
OBSERVATION TYPE: pKd

BINDER: h23-12-28 (antibody, human IgG1, kappa, V domains shown) VH: QVQLVQSGAEVKKPGASVKVSCKASGYTFTSYWMHWVRQAPGQGLEWMGEITPSDNYTSYNQKFKGRVTITRDTSTSTAYMELSSLRSEDTAVYYCARGQGNYVSFDYWGQGTLVTVSS VL: DIQMTQSPSSLSASVGDRVTITCRASQDISNYLNWYQQKPGKAPKLLIYYTSRLESGVPSRFSGSGSGTDFTLTISSLQPEDFATYFCQQGYTLPPYTFGQGTKLEIKR
OBSERVATION TYPE: pKd
OBSERVED MEASUREMENT: 8.38

BINDER: h23-12-24 (antibody, human IgG1, kappa, V domains shown) VH: QVQLVQSGAEVKKPGASVKVSCKASGYTFTSYWMHWVRQAPGQGLEWMGEITPSDGYTSYNQKFKGRVTITRDTSTSTAYMELSSLRSEDTAVYYCARGHGNYVSFDYWGQGTLVTVSS VL: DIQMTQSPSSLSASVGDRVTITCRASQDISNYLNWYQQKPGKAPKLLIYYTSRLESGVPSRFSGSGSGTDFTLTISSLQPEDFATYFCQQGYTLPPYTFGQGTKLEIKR
OBSERVATION TYPE: pKd
OBSERVED MEASUREMENT: 8.28

BINDER: h23-12-2 (antibody, human IgG1, kappa, V domains shown) VH: QVQLVQSGAEVKKPGASVKVSCKASGYTFTSYWMHWVRQAPGQGLEWMGEITPGDNYTSYNQKFKGRVTITRDTSTSTAYMELSSLRSEDTAVYYCARGHGNYVSFDYWGQGTLVTVSS VL: DIQMTQSPSSLSASVGDRVTITCRASQDISNYLNWYQQKPGKAPKLLIYYTSRLHSGVPSRFSGSGSGTDFTLTISSLQPEDFATYFCQQGYTLPPYTFGQGTKLEIKR
OBSERVATION TYPE: pKd
OBSERVED MEASUREMENT: 9.05
